Task for the reader: assign each of the following sequences its reported PBM binding z-score.
# Test system: LXRa:RXRa (NR concentration 270 nM, RXRa partner concentration 90 nM)
# TEST METHOD NOTES: PBM binding z-score (relative to random genomic background probes); higher = stronger binding; sequences stand for … in GC…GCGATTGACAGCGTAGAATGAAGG
Numbers only.

Examples with answers:
SEQUENCE CHAIN | PBM binding z-score
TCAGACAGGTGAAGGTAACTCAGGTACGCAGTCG | 1.82
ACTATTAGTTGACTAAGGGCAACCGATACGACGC | 0.474
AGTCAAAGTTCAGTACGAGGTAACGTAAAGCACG | 3.34
GCTGCTAGGTCAACTGATGGTCTGCTAAAGCTCG | 2.66
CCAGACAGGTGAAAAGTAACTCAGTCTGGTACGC | -0.0475

Here are 6 sequences. What values of PBM binding z-score were reported for them?
1. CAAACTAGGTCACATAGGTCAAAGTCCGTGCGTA
2. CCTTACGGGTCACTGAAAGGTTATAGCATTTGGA
3. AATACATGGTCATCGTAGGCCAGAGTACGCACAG
4. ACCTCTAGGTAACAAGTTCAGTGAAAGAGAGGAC
5. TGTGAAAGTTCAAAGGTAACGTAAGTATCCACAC
6. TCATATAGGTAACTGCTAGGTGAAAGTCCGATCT

a:
[5.33, 4.87, 0.702, 0.295, 5.73, 1.19]

* * *

Task for the reader: assign each of the following sequences its reported PBM binding z-score.
# System: THRa:RXRa (NR concentration 90 nM, RXRa partner concentration 90 nM)
# TEST METHOD NOTES: PBM binding z-score (relative to random genomic background probes); higher = stronger binding; sequences stand for … in GC…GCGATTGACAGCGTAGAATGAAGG

Examples with answers:
SEQUENCE CHAIN | TARGET SYSTEM | MEASUREMENT
CGTCAAAGTCCAACTAAGGTAACGTAAAGCACGC | THRa:RXRa (NR concentration 90 nM, RXRa partner concentration 90 nM) | 3.44
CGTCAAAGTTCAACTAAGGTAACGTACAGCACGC | THRa:RXRa (NR concentration 90 nM, RXRa partner concentration 90 nM) | 5.27
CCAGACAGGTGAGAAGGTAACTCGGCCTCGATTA | THRa:RXRa (NR concentration 90 nM, RXRa partner concentration 90 nM) | 0.364
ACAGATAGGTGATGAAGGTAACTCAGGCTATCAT | THRa:RXRa (NR concentration 90 nM, RXRa partner concentration 90 nM) | 0.83
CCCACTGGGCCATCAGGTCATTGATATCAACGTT | THRa:RXRa (NR concentration 90 nM, RXRa partner concentration 90 nM) | 3.22
TCAGACAGGTGTAGGTAACTCAGGTACGCAGTCG | THRa:RXRa (NR concentration 90 nM, RXRa partner concentration 90 nM) | 0.923
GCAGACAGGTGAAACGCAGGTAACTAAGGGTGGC | THRa:RXRa (NR concentration 90 nM, RXRa partner concentration 90 nM) | 1.15
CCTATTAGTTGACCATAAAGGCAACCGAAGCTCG | THRa:RXRa (NR concentration 90 nM, RXRa partner concentration 90 nM) | 0.39

Here are 4 sequences. What values of PBM binding z-score were reported for them?
1. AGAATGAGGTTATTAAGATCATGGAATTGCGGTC
2. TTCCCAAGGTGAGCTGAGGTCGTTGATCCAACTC
3. CGAACTAGGCCATCCAGGACAGTGAATACATTGA
4. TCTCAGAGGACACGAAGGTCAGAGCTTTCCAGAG

a:
1. 2.17
2. 4.52
3. 1.57
4. 2.79
